B1: TFE3 (parent)
chain: FHLGLEDILMEEEEGVVGGLSGGA

- Variants of: B1
- Assay Text: protein stability index of a GFP-peptide fusion (GPS, HEK-293T) (PSI 1-6); higher = more stable;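 also: lentivirally expressed fusions sorted by FACS into six bins by GFP to DsRed ratio, PSI derived from sequencing read proportions per bin multiplied by bin number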
- Condition Label: c terminus: a fixed tail appended
Param threshold (4) applies to protein stability index; output Criterion met when value >= threshold, Criterion not met when value < threshold.

Illustrative cases are given below, each with its answer.
E6M = Criterion not met
E14M = Criterion not met
L3P = Criterion met
M10H = Criterion not met
H2I = Criterion not met

Can L9P be said to have protein stability index at or above 4?
Criterion met

Thanks! And E12G ?
Criterion not met

What about S21T ?
Criterion not met

Check A24C too.
Criterion not met

// next record H2Y
Criterion not met

Would you kindly repeat that for L20S ?
Criterion met

Do the same for E11I please
Criterion not met
